# ELISA mIL12RB2/control per entry
# ASSAYED TARGET: T1, biotinylated recombinant mouse IL-12Rβ2 (produced in-house) (mouse, UniProt P97378 24-637, random biotinylated)
# T1 construct: also called mIL-12RB2; mIL12RB2
# T1 sequence: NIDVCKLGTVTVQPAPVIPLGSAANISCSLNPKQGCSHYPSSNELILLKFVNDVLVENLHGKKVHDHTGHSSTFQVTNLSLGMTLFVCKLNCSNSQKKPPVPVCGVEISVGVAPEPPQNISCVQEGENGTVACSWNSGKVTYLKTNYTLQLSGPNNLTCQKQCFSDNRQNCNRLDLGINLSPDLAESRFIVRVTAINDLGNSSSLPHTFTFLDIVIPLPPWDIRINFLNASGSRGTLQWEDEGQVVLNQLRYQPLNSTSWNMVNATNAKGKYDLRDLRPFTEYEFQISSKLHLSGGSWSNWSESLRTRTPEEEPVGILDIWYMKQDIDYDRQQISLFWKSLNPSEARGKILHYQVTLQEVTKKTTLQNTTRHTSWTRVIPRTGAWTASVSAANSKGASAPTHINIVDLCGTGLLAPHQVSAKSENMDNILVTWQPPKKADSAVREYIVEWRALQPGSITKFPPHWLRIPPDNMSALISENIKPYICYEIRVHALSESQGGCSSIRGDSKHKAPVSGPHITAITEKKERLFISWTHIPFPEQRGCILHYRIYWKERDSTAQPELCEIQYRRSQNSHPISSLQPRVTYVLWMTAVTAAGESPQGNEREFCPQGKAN
# ASSAY METHOD TEXT: ELISA, P.E. VHH on biotinylated mIL-12RB2, signal ratio to control well
Enter the number alone.

binder="anti-IL-12Rβ2 VHH clone 3CAHS171 (VHH, not shown: small tags and cut ends, tested as periplasmic extract; also called 3CANS171) VHH: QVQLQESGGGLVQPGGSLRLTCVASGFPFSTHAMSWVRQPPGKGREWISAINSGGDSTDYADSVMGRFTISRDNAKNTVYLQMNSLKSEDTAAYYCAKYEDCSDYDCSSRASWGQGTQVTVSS" quantity_kind="ELISA mIL12RB2/control" value=0.96

State its ELISA mIL12RB2/control for this binder: anti-IL-12Rβ2 VHH clone 3CAHS142 (VHH, not shown: small tags and cut ends, tested as periplasmic extract) VHH: QVQLQESGGGLVQAGESLTLSCIASGVIKDYAMGWFRQAPGKEREFVAAISWSGVSIYYADSVKGRFTISRDNAKNTVYLQMNSLEPEDTAVYYCAGTEGAYTVAGGSTFGYDMDYWGKGTQVTVSS
1.07

Look up and report measured ELISA mIL12RB2/control for this entry: anti-IL-12Rβ2 VHH clone 3CRHS9 (VHH, not shown: small tags and cut ends, tested as periplasmic extract) VHH: QVQLQESGGGLVQPGGSLRLSCTASGSIVSIYNMDWYRQAPGNEREWVASITSSGDPYYDGSAKGRFTISRDNAKMTVYLQMNSLKPEDTAVYYCKVPTEKGNYWGQGTQVTVSS
1.09

Give the reported value of ELISA mIL12RB2/control for this record: anti-IL-12Rβ2 VHH clone 3CRHM99 (VHH, not shown: small tags and cut ends, tested as periplasmic extract; also called 21062) VHH: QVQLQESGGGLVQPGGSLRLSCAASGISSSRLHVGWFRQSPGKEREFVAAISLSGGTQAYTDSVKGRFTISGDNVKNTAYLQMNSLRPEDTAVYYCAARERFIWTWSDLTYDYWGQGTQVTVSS
5.24

Return the recorded ELISA mIL12RB2/control value; entry: anti-IL-12Rβ2 VHH clone 3CAHM11 (VHH, not shown: small tags and cut ends, tested as periplasmic extract) VHH: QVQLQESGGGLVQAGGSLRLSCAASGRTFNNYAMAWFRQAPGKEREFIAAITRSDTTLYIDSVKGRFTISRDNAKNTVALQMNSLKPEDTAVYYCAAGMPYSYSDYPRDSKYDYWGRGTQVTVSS
38.8

Identify ELISA mIL12RB2/control associated with the binder anti-IL-12Rβ2 VHH clone 3CAHS102 (VHH, not shown: small tags and cut ends, tested as periplasmic extract) VHH: QVQLQESGGGLVQPGGSLRLSCAASGSILRINLMGWYRQVPGKQRELVAEMSTGGSTTYVDSVEGRFTISRDNAKNTVYLQMNSLKPEDTAVYYCNAKAWQLGRLENDDWGQGTQVTVSS
1.02

Kindly indicate its recorded ELISA mIL12RB2/control. Item: anti-IL-12Rβ2 VHH clone 3CAHS41 (VHH, not shown: small tags and cut ends, tested as periplasmic extract) VHH: QVQLQESGGGLVQAGDSLRLSCAASGRTFDTYIVGWFRQAPGKEREFVSALSWSDDTTIRDDSLRGRFTISRDNAKNTVYLLMNSLKPEDTAVYYCAAKAKPPAATWSSYRNREWYDYWGQGTQVTVSS
1.35

In one line, give reported ELISA mIL12RB2/control of the entry anti-IL-12Rβ2 VHH clone 3CRH25 (VHH, not shown: small tags and cut ends, tested as periplasmic extract) VHH: QVQLQESGGGLVQAGDSLRLSCTASGHTFSRYTTIGWFRQAPGKDREFVAAIRWSGDITDYADAVKGRFTISRDNVKNTVYLQMNSLNPEDTAVYYCARGYSEYGVLSRNRGLYAYWGQGTQVTVSS .
1.04

Look up ELISA mIL12RB2/control of anti-IL-12Rβ2 VHH clone 3CRHS106 (VHH, not shown: small tags and cut ends, tested as periplasmic extract) VHH: QVQLQESGGGLVQPGGSLRLSCKASGFTFSTYAMSWVRQAPGKGLEWVSAVNSGGLSTDYADSVEGRFTISRDDAKNMLFLQMNSLKPEDTARYYCAKYEDCSDYMCHRDRAGYWGQGTQVTVSS and report it.
1.03

These data points were gathered from patent US20260209362A1.
